- MEASURED ON: pooled human IgG (human IgG1, 2, 3 and 4)
MEASURE NAME: Enzyme Activity Endpoint Assay (purified): IgG (ng/µL)
Hi! Could you send only the number? It should be in ng/µL, unit omitted.

protein="PRT-437 (protein) MSQTEDSESLQRLRDIEDFQAEKKKQNVVYTKWLDGVDVKDHDFRKIVDGNEAYYATPLLNGRGFYDINKDFNRDSDKCAAAVAANMFHYWLDRNRDNVDRFLRQNPEKHGIIELPDGQLKLSDFLNTYESDDGYRDKSKLFDFISNNFNGPVWTDKLLDNYINGYAYNYKYGRTIEDPTKNTSKINFFKEVFNEKILTNNHSIRNQNEFSVLLSEALYTGKAIGLSYGPAGLRHSLGHIISVWGADLDADGNVVAIYVTDSDDKKLTIGDERVGLKRYKISTDDEGRLRLTAYEETHNTGGQIRGLWTLDTGKQAWADYFDKTEQTGTDQAEQ" value_observed=0

Note to self: Enzyme Activity Endpoint Assay (purified): IgG recorded for PRT-692 (protein) MQITSVWTKGVTPPTPEQFRYNNEDVIHAPYLPNQGWYDITKTFNGGDNLLCGAATAGNMLHWWFDQNKTEIEAYLSKYPEKQKIIFNNQELFDLRAAINSKDSQTNSQLFNYFRDKAFPNLSARQLGVMPDLVLDMFINGYYLNVFKTQSTDVNRPYQDPDKRGGIFDDVFKEGDQTTLLTARHDLKNGTLNDISTLIKQELQSGKALALSHTYANVSISHVINLWGADFNAEGNLEAIYVTDSDANQSIGMKKYKVGVNAHGKVAISAKKIEGENIGAQVLGLFTLSSGKEIWQKLSLEHHHHHH was 429

FYI, the data here is from patent US20250027068.
